- TEST_TARGET: Voltage-gated potassium channel subunit beta-2 (Rattus norvegicus) (UniProt P62483)
- Sequence (P62483 whole entry, looked up): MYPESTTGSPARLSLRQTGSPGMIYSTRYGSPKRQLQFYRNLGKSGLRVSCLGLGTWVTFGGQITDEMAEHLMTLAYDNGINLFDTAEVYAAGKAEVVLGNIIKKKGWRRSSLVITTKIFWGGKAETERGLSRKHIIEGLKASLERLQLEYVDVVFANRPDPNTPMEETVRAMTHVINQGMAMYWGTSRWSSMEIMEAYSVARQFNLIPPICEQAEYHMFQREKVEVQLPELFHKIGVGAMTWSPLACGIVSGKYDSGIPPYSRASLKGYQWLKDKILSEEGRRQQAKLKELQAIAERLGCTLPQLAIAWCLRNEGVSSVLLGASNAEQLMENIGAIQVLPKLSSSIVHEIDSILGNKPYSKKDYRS
- TEST_DESCRIPTION: inhibitors of rat Kvbeta2 reductase activity – biochemical, NADPH fluorescence, primary screen (AID 622);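 further: slope of raw intensity against log time taken from 70 to 1610 s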
- RUN_PARAMETERS: recombinant KvBeta, 4-cyanobenzaldehyde reduction, at 10 µM, stronger effect = higher value
Please enter Met where fluorescence slope is greater than or equal to -0.4, and Not met where it is lower.

Cc1ccc(NC(=O)CSc2nnc(-c3ccncc3)n2C)cc1C
Not met
N#Cc1nc(-c2ccco2)oc1N1CCN(c2cccc(Cl)c2)CC1
Met
COc1ccc(C)cc1NC(=O)CSc1nnnn1Cc1ccccc1
Not met
CCn1c(SCc2cccc(C(F)(F)F)c2)nnc1-c1ccco1
Not met
CCOC(=O)C(C#N)C(c1cccnc1)c1c(C)[nH][nH]c1=O (stereo unspecified)
Met

Turning to the following compound.
Record Cc1ccc2cc(CN(CCN3CCCC3)C(=O)Nc3ccc(F)cc3)c(=O)[nH]c2c1C ; criterion: fluorescence slope no lower than -0.4. Met?
Not met
